Form field: GSK3β fold selectivity (one value per entry).
- Assayed system: GSK3β (Homo sapiens, UniProt P49841)
- Sequence (P49841 whole entry): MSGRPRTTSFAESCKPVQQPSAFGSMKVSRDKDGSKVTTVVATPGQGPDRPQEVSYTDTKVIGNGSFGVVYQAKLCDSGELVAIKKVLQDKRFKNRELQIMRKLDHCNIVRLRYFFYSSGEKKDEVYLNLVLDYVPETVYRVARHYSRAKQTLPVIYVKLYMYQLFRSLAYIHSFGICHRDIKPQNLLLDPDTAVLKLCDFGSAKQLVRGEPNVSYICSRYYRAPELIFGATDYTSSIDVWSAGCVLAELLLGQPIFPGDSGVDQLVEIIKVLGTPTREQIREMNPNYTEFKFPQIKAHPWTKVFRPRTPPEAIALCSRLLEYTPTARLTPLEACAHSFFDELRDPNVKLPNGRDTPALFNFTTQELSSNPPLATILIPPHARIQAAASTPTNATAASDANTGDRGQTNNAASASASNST
- Condition parameters: Caliper assay; GSK3β over GSK3α
Endpoint label: GSK3β fold selectivity (fold)

compound="CCC(C)(C)Cc1[nH]nc2c1[C@](C)(c1ccccc1)C1=C(CC(C)(C)CC1=O)N2 (stereo in doubt)" assayed_system="GSK3β (Homo sapiens, UniProt P49841)" numeric_readout=6.4
compound="CC1(C)CC(=O)C2=C(C1)Nc1n[nH]c(C3CC(F)(F)C3)c1[C@]2(C)c1cccc(C(F)(F)F)c1 (stereo in doubt)" assayed_system="GSK3β (Homo sapiens, UniProt P49841)" numeric_readout=2.9
compound=COc1ccccc1[C@H]1C2=C(CC(C)(C)CC2=O)Nc2n[nH]c(C(C)C)c21 assayed_system="GSK3β (Homo sapiens, UniProt P49841)" numeric_readout=8.1
compound="CC1(C)CC(=O)C2=C(C1)Nc1n[nH]c(C3CCCCC3)c1C2(C)c1ccccc1 (racemic)" assayed_system="GSK3β (Homo sapiens, UniProt P49841)" numeric_readout=2.5
compound="CCC(C)(C)Cc1[nH]nc2c1C(C)(c1ccccc1)C1=C(CC(C)(C)CC1=O)N2 (racemic)" assayed_system="GSK3β (Homo sapiens, UniProt P49841)" numeric_readout=8.6
compound=COc1cc(F)ccc1[C@H]1C2=C(CC(C)(C)CC2=O)Nc2n[nH]c(C(C)C)c21 assayed_system="GSK3β (Homo sapiens, UniProt P49841)" numeric_readout=13.6
compound="CCC(C)(C)Cc1[nH]nc2c1[C@@](C)(c1ccccc1)C1=C(CC(C)(C)CC1=O)N2 (stereo in doubt)" assayed_system="GSK3β (Homo sapiens, UniProt P49841)" numeric_readout=4.0
compound=CCc1ccccc1[C@@H]1C2=C(CC(C)(C)CC2=O)Nc2n[nH]c(C(C)C)c21 assayed_system="GSK3β (Homo sapiens, UniProt P49841)" numeric_readout=11.0
compound="CC[C@]1(c2ccccc2)C2=C(CC3(COC3)CC2=O)Nc2n[nH]cc21 (stereo in doubt)" assayed_system="GSK3β (Homo sapiens, UniProt P49841)" numeric_readout=2.2
compound="CC(C)(C)Cc1[nH]nc2c1[C@@](C)(c1ccccc1)C1=C(CC(C)(C)CC1=O)N2 (stereo in doubt)" assayed_system="GSK3β (Homo sapiens, UniProt P49841)" numeric_readout=6.4
compound="COc1ccccc1[C@@H]1C2=C(CC(C)(C)CC2=O)Nc2n[nH]c(CC(C)(C)C)c21 (stereo in doubt)" assayed_system="GSK3β (Homo sapiens, UniProt P49841)" numeric_readout=5.6
compound="CC(C)(C)Cc1[nH]nc2c1C1(CCc3cc(F)ccc31)C1=C(CC(C)(C)CC1=O)N2 (racemic)" assayed_system="GSK3β (Homo sapiens, UniProt P49841)" numeric_readout=7.7

###

- Assayed system: GSK3β (Homo sapiens, UniProt P49841)
- Protocol details: biochemical
pIC50: −log10 of the molar value.
pIC50 values for the compounds below.
Endpoint label: pIC50

compound="CC(C)(C)Cc1[nH]nc2c1[C@]1(CCc3cc(F)ccc31)C1=C(CC(C)(C)CC1=O)N2 (stereo in doubt) [Compound 286]" endpoint_label=pIC50 result=6.10
compound="CC1(C)CC(=O)C2=C(C1)Nc1n[nH]c(C(F)(F)F)c1C2c1cc(F)ccc1F (stereo not drawn) [Compound 60]" endpoint_label=pIC50 result="6.00 to 7.00"
compound="COc1ccccc1C1C2=C(CCC(C)(C)C2=O)Nc2n[nH]c(C)c21 (stereo not drawn) [Compound 45]" endpoint_label=pIC50 result="6.00 to 7.00"

Values from patent US20160375006A1
